target: DHODH (Homo sapiens (Human), UniProt Q02127); experiment: DHODH activity assay (coupled enzyme assay, DCIP reduction, absorbance at 610 nm); format: biochemical; conditions: compound at 10 uM; read-out: inh @ 10 uM hDHODH (%)
Sequence (Q02127 whole entry): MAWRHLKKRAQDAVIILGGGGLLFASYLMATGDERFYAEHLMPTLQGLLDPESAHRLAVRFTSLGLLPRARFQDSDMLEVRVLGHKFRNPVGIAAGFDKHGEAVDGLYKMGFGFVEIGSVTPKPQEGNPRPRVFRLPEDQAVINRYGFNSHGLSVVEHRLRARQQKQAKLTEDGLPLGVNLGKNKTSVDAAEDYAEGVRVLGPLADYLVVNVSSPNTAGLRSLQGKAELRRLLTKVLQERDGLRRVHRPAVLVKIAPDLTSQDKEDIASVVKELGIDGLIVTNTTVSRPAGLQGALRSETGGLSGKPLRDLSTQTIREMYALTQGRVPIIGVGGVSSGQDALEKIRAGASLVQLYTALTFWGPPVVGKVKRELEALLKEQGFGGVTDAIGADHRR
endpointName: inhibition at 10 µM (%)

testSmiles	inhibition at 10 µM [%]
O=C(O)c1cccc2nc(-c3ccc(-c4ccccc4)cc3F)[nH]c12	86.2
Cc1cc(C(=O)O)c2c(c1)nc(-c1ccc(-c3ccc(O)cc3)cc1)n2CCO	80
Cc1cc(C(=O)O)c2nc(-c3c(F)c(F)c(-c4ccc(F)c(F)c4)c(F)c3F)[nH]c2c1	95.6
N#Cc1ccc(Oc2ccc(-c3nc4cccc(C(=O)O)c4[nH]3)cc2)cc1	34.6

A. O=C(O)c1cccc2[nH]c(-c3ccc(-c4ccc(OCc5ccccn5)cc4)cc3)nc12
B. Cc1cc(C(=O)O)c2nc(-c3c(F)c(F)c(-c4ccccc4)c(F)c3F)[nH]c2c1
For the two items A and B , which reports the higher inhibition at 10 µM value? Returns: label corresponding to the selected item.
B
(B: 103%, A: 57.7%)

A. Cc1cc(C(=O)O)c2nc(-c3ccc(-c4ccc(OCc5ccccc5)cc4)cc3)[nH]c2c1
B. N#Cc1ccccc1Oc1ccc(-c2ccc(-c3nc4c(C(=O)O)cccc4[nH]3)cc2)cc1
C. Cc1cc(C(=O)O)c2[nH]c(-c3ccc(Oc4ccc(C#N)cc4)cc3)nc2c1
D. N#Cc1cccc2nc(-c3ccc(-c4ccccc4)cc3)[nH]c12
E. Cc1ccc(-c2ccc(-c3nc4c(C(=O)O)cccc4[nH]3)cc2)cc1
Kindly order the items shown according to inhibition at 10 µM, from the highest value down. Reply with the item labels sorted in the order that was asked for.
A, C, B, D, E
(A: 87%, C: 58.5%, B: 30%, D: 16.8%, E: 9%)

a. O=C(O)c1cccc2[nH]c(-c3ccc(-c4ccc(CO)cc4)cc3)nc12
b. Cc1cc(C(=O)O)c2nc(-c3c(F)c(F)c(Oc4ccccc4)c(F)c3F)[nH]c2c1
Of a and b , which shows the smaller inhibition at 10 µM value? Returns: label corresponding to the selected item.
b

A. O=C(O)c1cccc2[nH]c(-c3ccc(-c4ccccc4)nc3)nc12
B. Cc1cc(C(=O)O)c2[nH]c(-c3ccc(-c4ccccc4)cc3F)nc2c1
For the two items A and B , which reports the higher inhibition at 10 µM value? Returns: label corresponding to the selected item.
B

* * *

target: DHODH (Homo sapiens (Human)); experiment: DHODH activity assay (coupled enzyme assay, DCIP reduction, absorbance at 610 nm); assay type: biochemical; conditions: compound at 10 uM; read-out: inh @ 10 uM hDHODH (%)
endpointName: inhibition at 10 µM (%)

testSmiles	testResult
O=C(O)c1cccc2nc(-c3ccc(-c4ccc(F)cc4F)cc3)[nH]c12	69.6
Cc1cc(C(=O)NC(C)C)c2[nH]c(-c3c(F)c(F)c(-c4ccccc4)c(F)c3F)nc2c1	71.3
Cc1cc(C(=O)O)c2[nH]c(-c3c(F)c(F)c(-c4cccc(OCc5ccccc5)c4)c(F)c3F)nc2c1	95.8
Cc1cc(C(=O)O)c2nc(-c3ccc(-c4ccc(OCCCN5CCOCC5)cc4)cc3)[nH]c2c1	74.1
O=C(O)c1cccc2[nH]c(-c3c(F)c(F)c(Oc4ccccc4)c(F)c3F)nc12	41.5
Cc1cc(-c2nnc(O)o2)c2nc(-c3c(F)c(F)c(-c4ccccc4)c(F)c3F)[nH]c2c1	32.3

1. Cc1cc(C(=O)O)c2[nH]c(-c3ccc(-c4ccc(F)cc4F)cc3F)nc2c1
2. Cc1cc(C(=O)O)c2nc(-c3ccc(-c4ccc(CN5CCCC5)cc4)cc3)[nH]c2c1
3. Cc1cc(C(=O)O)c2[nH]c(-c3ccc(-c4ccccc4)cc3)cc2c1
Kindly order the items shown according to inhibition at 10 µM, from the highest value down. Reply with the item labels sorted in the order that was asked for.
1, 2, 3

a. Cc1cc(C(=O)O)c2nc(-c3c(F)c(F)c(-c4ccccc4F)c(F)c3F)[nH]c2c1
b. CONC(=O)c1cc(C)cc2nc(-c3c(F)c(F)c(-c4ccccc4)c(F)c3F)[nH]c12
c. N#Cc1ccc(Oc2ccc(-c3ccc(-c4nc5c(C(=O)O)cccc5[nH]4)cc3)cc2)cc1
Kindly order the items shown according to inhibition at 10 µM, from the highest value down. Reply with the item labels sorted in the order that was asked for.
a, b, c
(a: 100%, b: 66.2%, c: 45.8%)
